Measured EC50, listed per entry.
# TGT: T1, Cynomolgus monkey MASP-2 D4-6 recombinant protein (Cynomolgus monkey, UniProt O00187 298-686 (human entry), limits assumed)
# T1 construct: Made 'similarly' to the human protein (N-terminal his6 tag)
# ASSAY METHOD TEXT: ELISA, antigen coated, chimeric IgG titrated, anti-human Fc-HRP
A complete answer gives the number followed by the unit.

binder="chimeric antibody 3B9 (antibody, V domains shown) VH: DVQLQESGPGLVRPSQSLSLTCTVTGYSITSDYAWNWIRQFPGNKLEWMGYISYSGRTSYNPSLKSRLSITRDTSKNQFFLQLNSVSSADTATYYCAIISTAVDFDYWGQGTTLTVSS VL: QTVLTQSPAIMSASLGERVTMTCTASSSVSSSYLLWYQQKPGSSPKLWIYSTSKLASGVPVRFSGSGSGTSYSLTISSMEADDAATYYCLQYNRSPLTFGAGTKLELK" meas_value="0.038 nM"

Now consider the entry below.
Can you share its EC50? I mean this binder: chimeric antibody 10L3 (antibody, V domains shown) VH: DVQLQESGPGLVKPSQSLSLTCTVTGYSITSDYAWNWIRQFPGNKLEWMGYISYSGRTSYNPSLKSRISITRDTSKNQFFLQLNSVTTEDTATYYCAKLGGGHGMDYWGQGTSVTVSS VL: IVMTQSQKFMSTSVGDRVSVTCKASQNVDTNVAWYQQKPGQSPKALIYSASYRYSGVPDRFTGSGSGTDFTLTISNVQSEDLAEYFCLQYNSYLTFGSGTKLELK
0.016 nM
